test system: Fibroblast; assay: Multiplex assay against human fibroblast; assay type: toxicity, cell-based; details: 48 h, 10 µM, compound concentration 10 uM, replicate 1
Property measured: Population Healthy Nuclei (%)

COc1cc(N2CCC(N(C)C)CC2)ccc1Nc1ncc(Cl)c(Nc2ccccc2P(C)(C)=O)n1: 41%
Nc1nc2c(c(N3CCNCC3)n1)CCC1=C2[C@@H]2CCCC[C@@H]2O1: 50%
CCn1c(-c2nonc2N)nc2cnc(Oc3cccc(NC(=O)c4ccc(OCCN5CCOCC5)cc4)c3)cc21 [GSK-269962A]: 50%
CC(=O)c1cc(-c2cc(C(=O)NC3CC3)ccc2C)c2ncccn12: 51%

Entry CC(C)Oc1ccc(C(=O)N[C@H](CNC(=O)CN(C)C)Cc2ccc(-c3cn4cccc([C@H](C)O)c4n3)cc2)cc1Cl [GSK-923295A] : Population Healthy Nuclei (%) on Fibroblast = 50%

Entry O=C(O)c1ccc2cc(-c3ccc(O)c(C45CC6CC(CC(C6)C4)C5)c3)ccc2c1 [O-DEMETHYLATED ADAPALENE] : Population Healthy Nuclei (%) on Fibroblast = 40%

---

system: Fibroblast; test: Incucyte cell viability with human fibroblast; assay type: toxicity, cell-based; settings: 24 h, 10 µM, compound concentration 10 uM, replicate number 1, timepoint 24 hours; note: filed as whole numbers so only -1 and 0 and 1 occur
Collected Growth Rate values appear next to each entry.
Enter the number alone.

Observe how each entry below is paired with its result.
Cc1nc2sccn2c(=O)c1CCN1CCC(=C(c2ccc(F)cc2)c2ccc(F)cc2)CC1 [RITANSERIN]: 0
C[C@H](CO)Nc1nc(SCc2cccc(Cl)c2F)nc2[nH]c(=O)sc12: 1

Entry FC(F)(F)c1c(N2CCC(c3ccccc3)CC2)ccn2c(CC3CC3)nnc12 : Growth Rate on Fibroblast = 0

Entry O=C(c1ccc(F)c(F)c1Nc1ccc(I)cc1F)N1CC(O)([C@@H]2CCCCN2)C1 [COBIMETINIB] : Growth Rate on Fibroblast = 1

Entry C[C@H](c1ccnc(Nc2nc3ccc(-c4cc(N(C)C)ncn4)cc3[nH]2)c1)N1CCN(C(=O)CC(F)(F)F)CC1 [BAY-985] : Growth Rate on Fibroblast = 1

Entry CC(=O)N1CCC(c2ccc(C(=O)NC3=NCCN3)cc2C(F)(F)F)CC1 [BI 0054] : Growth Rate on Fibroblast = 1

Entry O=C(NC[C@H](O)CN1CCc2ccccc2C1)c1ccnc(NC2CCC2)c1 : Growth Rate on Fibroblast = 1

Entry CCC(=O)O[C@]1(C(=O)SCF)[C@H](C)C[C@H]2[C@@H]3C[C@H](F)C4=CC(=O)C=C[C@]4(C)[C@@]3(F)[C@@H](O)C[C@@]21C [FLUTICASONE PROPIONATE] : Growth Rate on Fibroblast = 1

Entry Cc1cn(-c2cc(NC(=O)c3ccc4c(c3)CN(c3cncnc3)C[C@@H]4C)cc(C(F)(F)F)c2)cn1 : Growth Rate on Fibroblast = 0

Entry C=CCN1C[C@H](C)N([C@H](c2ccc(C(=O)N(CC)CC)cc2)c2cccc(O)c2)C[C@H]1C : Growth Rate on Fibroblast = 1

Entry CN(C)CCCn1cc(C2=C(c3c[nH]c4ccccc34)C(=O)NC2=O)c2ccccc21 [GF-109203] : Growth Rate on Fibroblast = 0

Entry CN(C)CC[C@@H](c1ccc(Cl)cc1)c1ccccn1.O=C(O)/C=C\C(=O)O [DEXCHLORPHENIRAMINE MALEATE] : Growth Rate on Fibroblast = 1

---

Collected Population Apoptotic (%) values appear next to each entry.
test system: Fibroblast; test: Multiplex assay against human fibroblast; assay type: toxicity, cell-based; conditions: 12 h, 10 µM, compound concentration 10 uM, replicate 1

Observe how each entry below is paired with its result.
O=C(O)c1ccc2cc(-c3ccc(O)c(C45CC6CC(CC(C6)C4)C5)c3)ccc2c1: 72%
N#Cc1cnc(Nc2cc(NC[C@H]3CNCCO3)c(C(F)(F)F)cn2)cn1: 69%

Quick note, Population Apoptotic (%) for CC(=O)c1cc(-c2cc(C(=O)NC3CC3)ccc2C)c2ncccn12 landed at 60%

Quick note, Population Apoptotic (%) for CNC(=O)c1cc(Oc2ccc(NC(=O)Nc3cc(C(C)(C)C)nn3-c3ccc4ncccc4c3)c(F)c2)ccn1 landed at 59%

Quick note, Population Apoptotic (%) for CC(=O)O[C@H]1C(=O)[C@@]2(C)[C@H]([C@H](OC(=O)c3ccccc3)[C@]3(O)C[C@H](OC(=O)[C@H](O)[C@@H](NC(=O)c4ccccc4)c4ccccc4)C(C)=C1C3(C)C)[C@]1(OC(C)=O)CO[C@@H]1C[C@@H]2O landed at 81% [middle of 4 runs]

Quick note, Population Apoptotic (%) for Cl.Cl.Nc1ncnc2c1c(-c1cccc(OCc3ccccc3)c1)cn2[C@H]1C[C@@H](CN2CCC2)C1 landed at 60%

Quick note, Population Apoptotic (%) for CCc1cc2c(cc1CC)CC(NC[C@H](O)c1ccc(O)c3[nH]c(=O)ccc13)C2 landed at 71%

Quick note, Population Apoptotic (%) for Cc1cn(-c2cc(NC(=O)c3ccc4c(c3)CN(c3cncnc3)C[C@@H]4C)cc(C(F)(F)F)c2)cn1 landed at 71%

Quick note, Population Apoptotic (%) for COc1cc2c(NC3CCN(C(C)C)CC3)nc(N3CCC(F)(F)CC3)nc2cc1OCCCN1CCCC1 landed at 61%

Quick note, Population Apoptotic (%) for Cc1cc2c(cc1N1C(=O)c3cccc4c(CCCO)ccc(c34)C1=O)n(C)c(=O)n2C landed at 68%

---

system: U2OS; assay: Multiplex assay against U2OS; format: toxicity, cell-based; settings: human, 24 h, 1 µM, compound concentration 1 uM, replicate 1
I would appreciate it if you labelled entries met when Population Pyknosed Nuclei (%) is 20% or higher, otherwise not met.

These recorded examples may help you get a feel for the data.
Cc1cn(-c2cc(NC(=O)c3ccc4c(c3)CN(c3cncnc3)C[C@@H]4C)cc(C(F)(F)F)c2)cn1: not met
CNC(=O)c1cc(Oc2ccc(NC(=O)Nc3cc(C(C)(C)C)nn3-c3ccc4ncccc4c3)c(F)c2)ccn1: not met
COc1ccc(NS(=O)(=O)c2sc3ccc(Cl)cc3c2C)cc1N1CCNCC1.Cl: not met
CN(C)CCOc1ccc(-c2nc(-c3ccncc3)c(-c3ccc4c(c3)CC/C4=N\O)[nH]2)cc1: met
CNC(=O)c1nn(C)c2c1C(C)(C)Cc1cnc(Nc3ccc(N4CCN(C)CC4)cc3)nc1-2: met
Cl.Cl.NC1(c2ccc(-c3nc4ccn5c(=O)[nH]nc5c4cc3-c3ccccc3)cc2)CCC1: not met

Query: Quick check, Population Pyknosed Nuclei (%) >= 20%? CC(C)Oc1ccc(C(=O)N[C@H](CNC(=O)CN(C)C)Cc2ccc(-c3cn4cccc([C@H](C)O)c4n3)cc2)cc1Cl [GSK-923295A]
Response: not met

Query: Quick check, Population Pyknosed Nuclei (%) >= 20%? CCOc1cc2ncc(C#N)c(Nc3ccc(OCc4cccc(F)c4)c(Cl)c3)c2cc1NC(=O)/C=C/CN(C)C
Response: not met

Query: Quick check, Population Pyknosed Nuclei (%) >= 20%? CCc1cc2c(cc1CC)CC(NC[C@H](O)c1ccc(O)c3[nH]c(=O)ccc13)C2
Response: not met

Query: Quick check, Population Pyknosed Nuclei (%) >= 20%? CCC(=O)O[C@]1(C(=O)SCF)[C@H](C)C[C@H]2[C@@H]3C[C@H](F)C4=CC(=O)C=C[C@]4(C)[C@@]3(F)[C@@H](O)C[C@@]21C [FLUTICASONE PROPIONATE]
Response: not met

---

Collected Population Mitochondria Different-Phenotype (%) values appear next to each entry.
test system: Fibroblast; assay: Multiplex assay against human fibroblast; assay type: toxicity, cell-based; settings: 24 h, 1 µM, compound concentration 1 uM, replicate 1
All answers are understood in %, so give the number only.

Observe how each entry below is paired with its result.
Cc1nc(Cc2cccc(C(F)(F)F)c2)sc1-c1ccc(C(N)=O)nc1 [TP-024n]: 1
Nc1nc2c(c(N3CCNCC3)n1)CCC1=C2[C@@H]2CCCC[C@@H]2O1: 2
Cc1cn(-c2cc(NC(=O)c3ccc4c(c3)CN(c3cncnc3)C[C@@H]4C)cc(C(F)(F)F)c2)cn1: 1
CN(C)C/C=C/C(=O)Nc1cc2c(Nc3ccc(F)c(Cl)c3)ncnc2cc1O[C@H]1CCOC1.O=C(O)/C=C\C(=O)O.O=C(O)/C=C\C(=O)O [AFATINIB DIMALEATE]: 7
CCOc1cc2ncc(C#N)c(Nc3ccc(OCc4cccc(F)c4)c(Cl)c3)c2cc1NC(=O)/C=C/CN(C)C: 3

Quick note, Population Mitochondria Different-Phenotype (%) for Cc1cc2c(cc1N1C(=O)c3cccc4c(CCCO)ccc(c34)C1=O)n(C)c(=O)n2C landed at 5

Quick note, Population Mitochondria Different-Phenotype (%) for CCn1c(-c2nonc2N)nc2cnc(Oc3cccc(NC(=O)c4ccc(OCCN5CCOCC5)cc4)c3)cc21 [GSK-269962A] landed at 9

Quick note, Population Mitochondria Different-Phenotype (%) for CCOc1cc(N2CCC(O)CC2)ccc1Nc1ncc2c(n1)N(C1CCCC1)CCC(=O)N2C landed at 6

Quick note, Population Mitochondria Different-Phenotype (%) for CCCn1c(=O)c2[nH]c(C34CC5CC(CC3C5)C4)nc2n(CCC)c1=O landed at 9
